- Tested on: SN12C renal
- protocol-description: NCI-60 one-dose screen, 48 h (100 = growth as untreated, 0 = no growth, -100 = all killed)
- condition-context: 10 µM
About 83,000 compounds went through this panel and 20% of them were active in at least one assay; those are over-represented in the sample as a whole.
Criterion: growth strictly less than 50%. Met: rule met. Not met: rule not met.

Solved entries (count: 4):
Determine whether this compound shows growth lower than 50% (ties excluded): CC/C(=C(/c1ccc(OCCN(C)C)cc1)c1ccc(OC(=O)CCCCC(=O)c2c(C)[nH]c(/C=C3\N=C(c4ccc[nH]4)C=C3OC)c2C)cc1)c1ccccc1
rule not met

Also need Nc1c(C(=O)Nc2cccc3ccccc23)sc2nc3c(cc12)C(=O)CCC3 , thanks.
rule met

Same thing, different compound: Cc1ccc(-c2n[nH]c(=O)c3noc(-c4ccc(C)cc4)c23)cc1
rule met

Try the compound CCOC(=O)CCC(NC(=O)c1ccc(N)cc1)C(=O)OCC (stereo unspecified)
rule not met

Kindly consider the entry below.
Given the entry Cc1cc(N(CCCNc2ccnc3cc(Cl)ccc23)Cc2ccc3c(c2)OCO3)nc(N2CCOCC2)n1 , would its reported growth be below 50%?
rule met

* * *

- Tested on: UACC-62 melanoma
- protocol-description: NCI-60 one-dose screen, 48 h (100 = growth as untreated, 0 = no growth, -100 = all killed)
- condition-context: 10 µM
Compounds without any hit were thinned out: in the full panel of roughly 83,000, 20% have a hit.
We use 80% as the dividing line for growth: on or above the line is criterion met, below is criterion not met.

Form field: growth at least 80%? Entry: CC(C)(C)c1ccc(N2CSC(=S)N(c3ccc(C(C)(C)C)cc3)C2)cc1
criterion met

Follow-up entry: O=C(N/N=C\c1cc(Cl)ccc1[N+](=O)[O-])c1ccco1
criterion met

Now consider COc1ccc2c(c1)C(=O)c1c-2c(OCCN(C)C)nc2ccccc12 .
criterion not met

Now consider CC(=O)c1nc2ccccc2n1CCN1CCN(C)CC1 .
criterion not met

Please answer likewise for COc1ccc(-c2nc(-c3nc4ccc(Cl)cc4[nH]3)c3ccccn23)cc1
criterion met

Check CNc1ccc(CSc2ccc(C)cc2)cc1 too.
criterion met

What do you have for O=C(Nc1cccc(-n2cc(-c3ccncc3)c(-c3cc(O)cc(Cl)c3)n2)c1)Nc1ccc(Cl)c(C(F)(F)F)c1 ?
criterion not met

Would you mind doing CCN1Cc2c(/C=C/c3ccccc3)nc3ccc(OC)cc3c2N(c2cccc(Cl)c2)C1 as well?
criterion not met

Likewise for O=C(CC(NC(=O)OCc1ccccc1)C(=O)OCc1ccccc1)OCc1ccccc1 (stereo not given) ?
criterion met

* * *

- System: T-47D breast
- protocol-description: NCI-60 one-dose screen, 48 h (100 = growth as untreated, 0 = no growth, -100 = all killed)
- condition-context: 10 µM
The panel holds about 83,000 compounds, 20% with a hit somewhere; the sample as a whole holds those more often. Active and inactive are the calls of the source. The calls were made as follows: active = growth percent below 10; inactive = the rest.
Items are presented alongside their recorded growth.

Request body: readout growth, system T-47D breast, query Cc1ccc(S(=O)(=O)Oc2ccc3c4c(c(=O)oc3c2)CCCCC4)cc1 . Return the value.
33.4% (inactive)

Another molecule to check: COc1ccc(-c2ccc(-c3ccc(C(=N)N)cn3)o2)cc1
69.1% (inactive)

One more molecule: COc1ccc(-n2c(SCc3cc(OC)c(OC)c(OC)c3)nc3ccc(C)cc3c2=O)cc1
67.8% (inactive)

Same for Nc1c(C(=O)Nc2ccccc2)sc2nc3c(cc12)CCCC3
47.3% (inactive)

Param item: ClC(Cl)(Cl)c1nc2nccnc2[nH]1
101% (inactive)

Let us now turn to O=C(NN1C(=O)CSC1c1ccc(Cl)cc1)c1cccnc1 (configuration not stated)
102% (inactive)

Next molecule: COc1ccc(NC(=O)CSc2nc3ccccc3c(=O)n2CCc2ccccc2)cc1
93.3% (inactive)

Follow-up entry: COc1ccc(OC)c(/C=C/c2nc(SC)n(-c3ccc(Cl)cc3)n2)c1
42.8% (inactive)

O=C(N/N=C/c1ccccc1O)C(O)(c1ccccc1)c1ccccc1 ?
48.1% (inactive)

And then O=[N+]([O-])c1ccc(Oc2cccnc2)c([N+](=O)[O-])c1 , what is it?
61.1% (inactive)

---
What reported growth corresponds to Clc1ccc(Sc2nc(NC3CC3)nc(Sc3ccc(Cl)cc3)n2)cc1 on T-47D breast?
65% (inactive)

Request: CCOC(=O)N1C/C(=C/c2ccc(F)cc2)C(=O)/C(=C/c2ccc(F)cc2)C1
30.5% (inactive)

* * *

- Tested on: SW-620 colon
- protocol-description: NCI-60 one-dose screen, 48 h (100 = growth as untreated, 0 = no growth, -100 = all killed)
- condition-context: 10 µM
Compounds without any hit were thinned out: in the full panel of roughly 83,000, 20% have a hit. The source made the active and inactive calls. The calls were made as follows: active = growth percent below 10; inactive = the rest.
value-kind: growth

// lookup growth for COc1ccc(/C(=C2\O[C@@H]([C@H]3COC(C)(C)O3)[C@H]3OC(C)(C)O[C@@H]23)c2cc(OC)c(OC)c(OC)c2)cc1O
15.4% (inactive)

Shifting focus to the molecule that follows.
Item N=c1nc(N)ncn1-c1ccccc1 has what recorded growth?
107% (inactive)

* * *

- System: LOX IMVI melanoma
- protocol-description: NCI-60 one-dose screen, 48 h (100 = growth as untreated, 0 = no growth, -100 = all killed)
- condition-context: 10 µM
- Procedure: Growth inhibition of the LOX IMVI human tumor cell line is measured as a screen for anti-cancer activity. Cells are grown in 96 well plates and exposed to the test compound for 48 hours. Compounds are tested at a single concentration, which is 10^-5 M for most compounds. The reported endpoint is percent growth (GI% or GIPRCNT), where numbers from 0 - 100% represent growth inhibition, and numbers from -100% - 0 represent cell death. For example, a value of 40 represents 60% growth inhibition. […]
This is part of a sample that, as a whole, favours compounds with a hit. Of some 83,000 tested, about 20% had one in any assay.
Some molecules, each annotated with its measured growth.
Form entry: value (%) — number only.

Answered cases to consult:
Tell me the measured growth of CNc1ncc(-c2ccc(C(F)(F)F)cc2)c(NC2CCCCCC2)n1 , please.
85.8

Try O=C1OCC2=C1C(c1cccc(Cl)c1)c1cc3c(cc1N2CCO)CCC3 (stereo not drawn) next.
12.6

We next turn to a different molecule, shown below.
Fill in: growth of COc1ccc2c(c1OC)O/C(=C\c1ncc([N+](=O)[O-])n1C)C2=O is ___
0.891

* * *

Listed here are compounds together with their documented growth.
- System: RPMI-8226 leukemia
- protocol-description: NCI-60 one-dose screen, 48 h (100 = growth as untreated, 0 = no growth, -100 = all killed)
- condition-context: 10 µM
The panel holds about 83,000 compounds, 20% with a hit somewhere; the sample as a whole holds those more often.
Express the result in % but write the number alone.

Reported growth, compound O=C(O)c1ccc(Cl)cc1Nc1ccc(F)cc1 : ____
88.6

***
Suppose we examine the compound C(CCCC1=NCCO1)CCCC1=NCCO1 ; what growth value has been reported?
89.4

What would you report for CCOC(=O)N1C=CC2C=CC1C1C=CC=CC2N1C(=O)OCC (stereo not drawn) ?
89.5

* * *

- Tested on: CCRF-CEM leukemia
- protocol-description: NCI-60 one-dose screen, 48 h (100 = growth as untreated, 0 = no growth, -100 = all killed)
- condition-context: 10 µM
Compounds without any hit were thinned out: in the full panel of roughly 83,000, 20% have a hit.
Parameter threshold = 70%. Response is true when growth meets or exceeds it, else false.

Item O=C1NC(=O)N(Cc2ccccc2)CC1Br (stereo unspecified) with growth of 70% or above?
false

What do we get for Cn1c([N+](=O)[O-])cnc1/C=C1\Oc2ccc(Cl)cc2C1=O ?
false

Ok, now Cc1cccc(NC2=C(C#N)C(=O)NC3(CCCC3)S2)c1
true

Continue with CC(=O)OCc1cc(-c2nc3ccccc3[nH]c2=O)nn1-c1ccc(Cl)cc1
true

And the next one, CN(C)Cc1cn(-c2ncc(-c3ccc(C(F)(F)F)cc3)c(NC3CCCCCC3)n2)nn1 ?
true

Others:
API: above_or_equal(metric=growth, cutoff=70%) for item CCN(CC)CCNc1ccc(CO)c2oc3cc(Cl)ccc3c(=O)c12
false

* * *

- Tested on: 786-0 renal
- protocol-description: NCI-60 one-dose screen, 48 h
- condition-context: 10 µM
The panel holds about 83,000 compounds, 20% with a hit somewhere; the sample as a whole holds those more often. Activity calls are given as the source filed them. How the source made its calls: active means growth percent below 10; inactive means the rest.
Assign a class; possible classes are active, inactive

Call for entry COc1cc([C@@H]2c3cc4c(cc3C(Br)[C@H]3COC(=O)[C@H]23)OCO4)cc(OC)c1OC (some centres undefined) :
active

And then NC(=O)SCC(=O)Nc1ccc(S(N)(=O)=O)cc1 , what is it?
inactive

Then what about the compound CN(C)CCOc1nc2ccccc2c2c1-c1ccc(Cl)cc1C2=O ?
inactive

Field entry: Nc1nc(-c2ccccc2Cl)cc(-c2ccc(Cl)cc2Cl)n1
inactive

And then CCc1ccc2c(c1)N(CCO)C1=C(C(=O)OC1)C2c1cc(OC)c(OC)c(OC)c1 (centres undefined) , what is it?
inactive

Query compound follows.
Dear all, I need the recorded test outcome for Clc1ccccc1N=Cc1ccc2c(c1)OCO2 , thank you.
inactive
